As an illustration, consider measured pIC50 for compounds on PDE1C of βTC3 cells (Mus musculus, UniProt Q64338).
Sequence (Q64338 151-528 limits assumed): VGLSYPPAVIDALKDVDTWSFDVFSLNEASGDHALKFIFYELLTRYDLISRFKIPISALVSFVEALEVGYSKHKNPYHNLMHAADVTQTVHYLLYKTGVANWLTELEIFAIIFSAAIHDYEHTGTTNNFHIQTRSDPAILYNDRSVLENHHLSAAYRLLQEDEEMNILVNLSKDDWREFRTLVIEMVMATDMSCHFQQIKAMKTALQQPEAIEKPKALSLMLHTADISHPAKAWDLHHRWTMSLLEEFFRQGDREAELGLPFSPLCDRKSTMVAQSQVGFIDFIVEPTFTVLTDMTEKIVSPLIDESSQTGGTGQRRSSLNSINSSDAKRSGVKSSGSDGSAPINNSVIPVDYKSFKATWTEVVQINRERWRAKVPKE
pIC50 here: minus log base 10 of the concentration, concentration in moles per litre.

Query the reported pIC50 for PDE1C of βTC3 cells (Mus musculus, UniProt Q64338); item: CCCOc1ccccc1-c1nc2nn[nH]c2c(=O)[nH]1 [Zaprinast, zaprinast] 5.35

Query the reported pIC50 for PDE1C of βTC3 cells (Mus musculus, UniProt Q64338); item: COCc1nc2c([nH]1)c(=O)n(C)c(=O)n2CC(C)C [8 MM-IBMX] 5.12

----------
So I've got a bunch of molecules here, and I need their IC50 values.
Target: PDE1C of βTC3 cells (Mus musculus, UniProt Q64338)
Experiment: cAMP PDE activity of mono-Q FPLC peak I (PDE1C) of βTC3 cells
Format: biochemical
Details: 1 μM cAMP substrate; average ± standard deviation; read-out: IC50 values Peak I PDE1

Request the reported IC50 associated with `Cc1[nH]c(=O)c(C#N)cc1-c1ccncc1` > 100 µM

Request the reported IC50 associated with COc1ccc(C2CNC(=O)C2)cc1OC1CCCC1 (stereo not drawn) > 100 µM

Request the reported IC50 associated with `CCOC(=O)C1=C[C@]2(CC)CCCN3CCc4c(n1c1ccccc41)[C@@H]32` > 100 µM
